- assay.explanation: AOX inhibitors, oxygen consumption, profiling panel (AID 1259412);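 note: growth monitored over 72 h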
- settings: AOX-dependent respiration, O2 uptake; measured here: growth, control condition; at 500 µM
Hi there, I'd appreciate the recorded growth (% of control) for every entry that follows.
Reply with just the number (in %).

query: Report growth (% of control), nothing else, for this molecule: COc1cccc(C(=O)Nc2cccc(Cl)c2)c1
result: 33

query: Name the recorded growth (% of control) of the molecule listed here: O=C(Nc1cccc(C(F)(F)F)c1)c1ccccc1I
result: 92

query: Give recorded growth (% of control). N#Cc1cccc(C(=O)Nc2cccc(OCc3ccccc3)c2)c1
result: 90.3

query: Report growth (% of control), nothing else, for this molecule: O=C(Nc1ccccc1)c1cccc(Br)c1
result: 91.1

query: Please look at this molecule and report its growth (% of control): Nc1cccc(S(=O)(=O)c2cccc(NC(=O)c3cccc(F)c3)c2)c1
result: 106

query: Consider the molecule O=C(Nc1cccc(NC(=O)c2cccc(Cl)c2)c1)c1cccc(Cl)c1 . State its measured growth (% of control).
result: 114

query: Indicate its recorded growth (% of control); the molecule in question is O=C(Nc1cccc(Cl)c1)c1cccc(I)c1
result: 88.6

query: Input O=C(Nc1ccc(N2CCOCC2)cc1)c1cccc(Cl)c1 , output reported growth (% of control).
result: 92.8

query: Supply reported growth (% of control) belonging to this molecule: O=C(Nc1cccc(F)c1)c1cccc(F)c1
result: 78.7

query: Provide growth (% of control) value for the following molecule: COc1cc(NC(=O)c2ccccc2I)cc(OC)c1OC
result: 90.9

query: Identify growth (% of control) associated with the molecule COc1cc(NC(=O)c2cccc(Cl)c2)cc(OC)c1OC
result: 78

query: Respond only with growth (% of control) recorded for NC(=O)c1ccccc1NC(=O)c1cccc(I)c1
result: 98.8

query: Find the measured growth (% of control) of NC(=O)c1ccccc1NC(=O)c1cccc(Cl)c1 and report it.
result: 68.9

query: Provide growth (% of control) value for the following molecule: O=C(Nc1cccc(Br)c1)c1ccccc1I
result: 98.8

query: Fill in reported growth (% of control) for this entry: O=C(Nc1cccc(I)c1)c1cccc(Br)c1
result: 103

query: Look up and report measured growth (% of control) for this entry: COc1cccc(C(=O)Nc2cccc(I)c2)c1
result: 80

query: Give recorded growth (% of control). N#Cc1cccc(C(=O)Nc2ccccc2C(N)=O)c1
result: 85.5

query: State, in one line, measured growth (% of control) of O=C(Nc1cccc(Cl)c1)c1cccc(F)c1
result: 60.1

query: Given the molecule CCN(CC)CCNC(=O)c1ccccc1 , write its reported growth (% of control).
result: 87.9

query: Please give measured growth (% of control) of the following entry: NC(=O)c1ccccc1NC(=O)c1cccc(Br)c1
result: 80.6

query: Return the recorded growth (% of control) value; entry: O=C(Nc1ccccc1)c1cccc(Cl)c1
result: 91.8

query: Please give measured growth (% of control) of the following entry: N#Cc1cccc(C(=O)Nc2cccc(F)c2)c1
result: 107

query: Please list growth (% of control) recorded for the molecule Cc1cccc(C(=O)Nc2ccc(N3CCOCC3)cc2)c1
result: 96

query: Give the reported growth (% of control) for this molecule. O=C(Nc1ccccc1)c1ccccc1
result: 94.3

query: Retrieve growth (% of control) measured for O=C(Nc1cccc(OCc2ccccc2)c1)c1cccc(Cl)c1 and print it.
result: 92.6

query: Provide growth (% of control) value for the following molecule: O=C(Nc1cccc(OCc2ccccc2)c1)c1cccc(Br)c1
result: 93.9

query: Assign growth (% of control) to the following record: COc1cc(NC(=O)c2ccccc2)cc(OC)c1OC
result: 76

query: Kindly indicate its recorded growth (% of control). Item: O=C(Nc1cccc(NC(=O)c2cccc(I)c2)c1)c1cccc(I)c1
result: 116

query: Hello, please tell me recorded growth (% of control) for this one: N#Cc1cccc(C(=O)Nc2cccc(I)c2)c1
result: 117

query: Answer with the recorded growth (% of control) for the molecule listed here: O=C(Nc1cccc(C(F)(F)F)c1)c1cccc(F)c1
result: 35.2

query: Output growth (% of control) of O=C(NCc1ccc2c(c1)OCO2)c1cccc(Cl)c1
result: 72

query: Give a short answer stating reported growth (% of control) for COc1cc(NC(=O)c2cccc(F)c2)cc(OC)c1OC .
result: 80.8

query: Look up and report measured growth (% of control) for this entry: O=C(Nc1cccc(F)c1)c1cccc(I)c1
result: 86.5

query: Look up growth (% of control) of Cc1cccc(C(=O)Nc2cccc(OCc3ccccc3)c2)c1 and report it.
result: 109

query: Answer with the recorded growth (% of control) of COc1cccc(C(=O)Nc2cccc(NC(=O)c3cccc(OC)c3)c2)c1 only.
result: 96.8

query: State its growth (% of control) for this molecule: O=C(Nc1ccc(N2CCOCC2)cc1)c1cccc(F)c1
result: 90.8

query: Fill in growth (% of control) for record O=C(Nc1ccccc1)c1cccc(F)c1
result: 101

query: Give the value of growth (% of control) reported for the following: O=C(Nc1cccc(NC(=O)c2ccccc2)c1)c1ccccc1
result: 103

query: Please supply the value of reported growth (% of control) for the item O=C(Nc1cccc(C(F)(F)F)c1)c1cccc(Br)c1
result: 99.1

query: Supply measured growth (% of control) of Cc1cccc(C(=O)Nc2cccc(Cl)c2)c1 in your reply.
result: 65.6

query: For Cc1cccc(C(=O)Nc2cccc(NC(=O)c3cccc(C)c3)c2)c1 , write its growth (% of control).
result: 118

query: Output growth (% of control) of O=C(Nc1cccc([N+](=O)[O-])c1)c1ccccc1
result: 103

query: Input Nc1cccc(S(=O)(=O)c2cccc(NC(=O)c3cccc(Cl)c3)c2)c1 , output reported growth (% of control).
result: 83.7

query: Give recorded growth (% of control). COc1cccc(C(=O)Nc2cc(OC)c(OC)c(OC)c2)c1
result: 89

query: For the molecule Cc1cccc(C(=O)Nc2cccc(F)c2)c1 , report growth (% of control).
result: 43.4

query: Given O=C(Nc1ccc(N2CCOCC2)cc1)c1ccccc1 , respond with its growth (% of control).
result: 87.8

query: Fill in reported growth (% of control) for this entry: O=C(NCc1ccc2c(c1)OCO2)c1cccc(F)c1
result: 48.8

query: Report growth (% of control), nothing else, for this molecule: O=C(Nc1cccc([N+](=O)[O-])c1)c1cccc(Cl)c1
result: 90.6

query: // Input: NC(=O)c1ccccc1NC(=O)c1ccccc1 . Output its growth (% of control) only.
result: 88.6

query: State its growth (% of control) for this molecule: O=C(Nc1cccc(F)c1)c1cccc(Cl)c1
result: 70.3

query: Tell me measured growth (% of control) for COc1cccc(C(=O)Nc2ccc(N3CCOCC3)cc2)c1 please.
result: 86.6

query: Provide growth (% of control) value for the following molecule: NC(=O)c1ccccc1NC(=O)c1ccccc1I
result: 82.7
